B1: library; numbered along this chain (parent)
chain: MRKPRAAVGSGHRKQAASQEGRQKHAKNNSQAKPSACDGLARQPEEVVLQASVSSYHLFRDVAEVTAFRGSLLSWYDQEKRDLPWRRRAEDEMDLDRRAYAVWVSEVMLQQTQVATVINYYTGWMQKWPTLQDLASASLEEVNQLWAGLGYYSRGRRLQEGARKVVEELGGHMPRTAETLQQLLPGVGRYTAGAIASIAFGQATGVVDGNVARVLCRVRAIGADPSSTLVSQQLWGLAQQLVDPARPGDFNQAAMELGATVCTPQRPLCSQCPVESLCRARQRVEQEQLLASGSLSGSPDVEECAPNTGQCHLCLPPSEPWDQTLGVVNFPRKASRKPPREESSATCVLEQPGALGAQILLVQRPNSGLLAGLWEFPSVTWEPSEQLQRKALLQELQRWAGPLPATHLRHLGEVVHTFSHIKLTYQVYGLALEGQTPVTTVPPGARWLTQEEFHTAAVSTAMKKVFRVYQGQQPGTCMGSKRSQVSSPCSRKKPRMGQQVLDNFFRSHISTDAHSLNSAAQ

Variants of: B1
ASSAY_TEXT: 8OG:A repair function score (normalized; synonymous = 0, nonsense = -1) (normalized log-likelihood score); higher = more repair activity (WT-like);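 further: cells sorted at 72 h after reporter transfection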
CONDITION_INFO: with 8OG:A DNA repair reporter (GFP) in HEK-293 MUTYH KO cells
Give class 1 when the value for 8OG:A repair function score is at least -0.2. Give class 0 when it is less.

| SEQUENCE_VARIANT | CLASS_NAME |
| --- | --- |
| T112P | class 0 |
| A194P | class 0 |
| F453I | class 0 |
| L134G | class 0 |
| W146Q | class 0 |
| Q50V | class 1 |
| C278H | class 0 |
| A220I | class 0 |
| L58P | class 0 |
| S335Q | class 1 |
| V301M | class 1 |
| M173N | class 0 |
| D82E | class 1 |
| F453Y | class 1 |
| L411A | class 1 |
| K481F | class 1 |
| Q498G | class 1 |
| V500Q | class 1 |
| G186F | class 0 |
| G353P | class 1 |
| G309L | class 1 |
| V301H | class 1 |

From: the supplement of paper PMC11908140
